I'd appreciate it if you could supply Growth Rate values for the items below.
system: Fibroblast; experiment: Incucyte cell viability with human fibroblast; assay type: toxicity, cell-based; settings: 12 h, 10 µM, compound concentration 10 uM, replicate number 2, timepoint 12 hours; note: filed as whole numbers so only -1 and 0 and 1 occur

>  <smi>
Cl.O=C(O)Cc1cccc(OCCCN(Cc2cccc(C(F)(F)F)c2Cl)CC(c2ccccc2)c2ccccc2)c1

>  <measured quantity>
Growth Rate

>  <reported>
0

$$$$
>  <smi>
Cc1nc(-c2ccc(C(F)(F)F)cc2)sc1COc1ccc([C@H](CC(=O)O)c2ccon2)cc1

>  <measured quantity>
Growth Rate

>  <reported>
0

$$$$
>  <smi>
CC(C)C[C@H](CO)Nc1nc(S[C@@H](C)c2ccccc2)nc2nc(N)sc12

>  <measured quantity>
Growth Rate

>  <reported>
1

$$$$
>  <smi>
C=C1/C(=C\C=C2/CCC[C@]3(C)[C@@H]([C@H](C)/C=C/[C@H](C)C(C)C)CC[C@@H]23)C[C@@H](O)C[C@@H]1O

>  <measured quantity>
Growth Rate

>  <reported>
0

$$$$
>  <smi>
CS(=O)(=O)NCC[C@H](NC(=O)c1cncc2c1cnn2-c1ccc(F)cc1)c1ccnc(S(C)(=O)=O)c1

>  <measured quantity>
Growth Rate

>  <reported>
0

$$$$
>  <smi>
NC(=O)c1cccc(-c2cc(Nc3ccc(OC(F)(F)F)cc3)ncn2)c1

>  <measured quantity>
Growth Rate

>  <reported>
1

$$$$

Attention now turns to another entry.
Using the record for `CO[C@@H](C)c1c(Nc2ccc([C@@H](N(C)C(=O)C3CCS(=O)(=O)CC3)C(F)(F)F)cc2)cnc2cc(Cl)nn12` , report its Growth Rate.
0

----------
tested on: U2OS; assay: Incucyte cell viability with U2OS; assay type: toxicity, cell-based; details: human, 12 h, 10 µM, compound concentration 10 uM, replicate number 2, timepoint 12 hours; note: filed as whole numbers so only -1 and 0 and 1 occur
Exercise: state measured Growth Rate for each of the molecules provided.
Give bare numbers.

As a guide, the following entries are already answered.
>  <smi>
Cl.Oc1ccc2c3c1O[C@H]1c4[nH]c5c(c4C[C@@]4(O)[C@@H](C2)N(CC2CC2)CC[C@]314)C[C@@]1(O)[C@H]2Cc3ccc(O)c4c3[C@@]1(CCN2CC1CC1)[C@H]5O4

>  <measured quantity>
Growth Rate

>  <reported>
0

$$$$
>  <smi>
COc1ccc(S(=O)(=O)N(CCO)c2ccccc2CN(C)C/C=C/c2ccc(Cl)cc2)cc1.O=P(O)(O)O

>  <measured quantity>
Growth Rate

>  <reported>
1

$$$$
>  <smi>
COc1cc(OC)cc(-c2noc(N3CCN(C)C4(CCN(c5ccnc(C)c5)CC4)C3)n2)c1

>  <measured quantity>
Growth Rate

>  <reported>
1

$$$$
>  <smi>
COc1ccnc(N2CCC3(CCCN(Cc4c[nH]c5ccccc45)C3=O)CC2)n1

>  <measured quantity>
Growth Rate

>  <reported>
0

$$$$
>  <smi>
CCCCCCCCCCCCCCCCOC[C@H](COP(=O)([O-])OCC[N+](C)(C)C)OC(C)=O

>  <measured quantity>
Growth Rate

>  <reported>
0

$$$$
>  <smi>
CC1(C)CCC(C)(C)c2cc(NC(=O)c3ccc(C(=O)O)cc3)ccc21

>  <measured quantity>
Growth Rate

>  <reported>
1

$$$$

Give the measured Growth Rate of `CO[C@H]1CC[C@H](CNc2ccc(S(=O)(=O)NC(=O)c3ccc(N4CCN(CC5=C(c6ccc(Cl)cc6)CC(C)(C)CC5)CC4)cc3Oc3cnc4[nH]ccc4c3)cc2[N+](=O)[O-])CC1` .
1

Values were extracted from ChEMBL document CHEMBL4689842.
